target: ZFP SBS#999 (synthetic); test: EMSA; conditions: tags: MBP fusion
Sequence (chain, as listed by the source): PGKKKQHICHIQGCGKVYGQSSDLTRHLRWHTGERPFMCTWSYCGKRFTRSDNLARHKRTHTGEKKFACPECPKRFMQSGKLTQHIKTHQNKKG
REPORTED_PROPERTY: pKd
The read-out pKd is expressed as -log10 of concentration in moles per litre.

Which pKd value is on record for AGAGAGGCT (dsDNA) DNA 1: AGAGAGGCT DNA 2: AGCCTCTCT ?
9.22
